assaySystem: human metabotropic glutamate receptor mGluR5 (Homo sapiens, UniProt P41594)
Sequence (P41594 21-1212): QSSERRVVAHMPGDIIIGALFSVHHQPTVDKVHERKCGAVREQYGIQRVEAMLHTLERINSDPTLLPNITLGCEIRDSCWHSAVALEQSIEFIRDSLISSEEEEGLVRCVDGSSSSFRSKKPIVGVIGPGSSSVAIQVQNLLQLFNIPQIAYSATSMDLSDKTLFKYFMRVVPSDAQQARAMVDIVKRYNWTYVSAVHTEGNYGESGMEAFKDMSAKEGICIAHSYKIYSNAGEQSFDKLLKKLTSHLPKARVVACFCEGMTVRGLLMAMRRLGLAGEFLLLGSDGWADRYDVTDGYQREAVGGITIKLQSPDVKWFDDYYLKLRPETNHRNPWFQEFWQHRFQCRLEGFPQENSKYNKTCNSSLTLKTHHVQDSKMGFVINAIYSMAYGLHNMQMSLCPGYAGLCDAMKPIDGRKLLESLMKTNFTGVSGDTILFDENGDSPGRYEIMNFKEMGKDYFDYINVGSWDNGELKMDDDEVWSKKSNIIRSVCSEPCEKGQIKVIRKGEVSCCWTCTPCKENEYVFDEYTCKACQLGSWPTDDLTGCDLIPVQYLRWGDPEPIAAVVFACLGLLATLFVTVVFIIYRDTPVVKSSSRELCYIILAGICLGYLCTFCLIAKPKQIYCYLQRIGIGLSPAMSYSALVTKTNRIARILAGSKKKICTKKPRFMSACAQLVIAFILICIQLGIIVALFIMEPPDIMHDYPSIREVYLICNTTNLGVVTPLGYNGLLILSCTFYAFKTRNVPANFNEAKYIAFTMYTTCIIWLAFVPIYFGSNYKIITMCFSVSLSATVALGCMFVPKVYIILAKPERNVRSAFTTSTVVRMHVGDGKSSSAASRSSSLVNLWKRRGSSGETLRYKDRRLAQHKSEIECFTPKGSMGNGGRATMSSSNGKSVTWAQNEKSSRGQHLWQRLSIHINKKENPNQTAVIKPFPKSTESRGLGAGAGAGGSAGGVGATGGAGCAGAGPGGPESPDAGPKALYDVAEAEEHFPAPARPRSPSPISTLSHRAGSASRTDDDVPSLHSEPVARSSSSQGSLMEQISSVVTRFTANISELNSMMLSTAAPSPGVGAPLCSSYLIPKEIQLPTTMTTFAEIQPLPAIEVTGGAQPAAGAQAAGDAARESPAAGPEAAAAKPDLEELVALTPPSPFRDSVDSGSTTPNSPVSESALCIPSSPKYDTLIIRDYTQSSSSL
experimentNotes: Cytosolic calcium studies with stably transfected cells (h5CHO), functional assay of mGluR5 receptors
statedConditions: Table A1; positive modulators; h5CHO cells preincubated with modulator, stimulated by an EC20 concentration of L-glutamate; read-out: hEC50
Sorting guide: entries reporting EC50 beneath 500 nM go in the Condition met pile, the rest go in the Condition not met pile.

- COC(=O)N1CC2Cc3cc(C#Cc4ccccc4)cnc3C2C1 (racemic): Condition met
- COC(=O)N1C[C@H]2Cc3cc(C#Cc4cccc(F)c4)cnc3[C@H]2C1 (racemic): Condition not met
- O=S(=O)(N1CCCCC1)N1CCc2ncc(C#Cc3ccccc3)cc2C1: Condition not met
- CC(C)(C)[S+]([O-])N1CCc2ncc(C#Cc3ccccc3)cc2C1 (racemic): Condition met
- CCN1CCO[C@@H]2c3cc(C#Cc4ccccc4)cnc3CC[C@@H]21 (racemic): Condition not met
- CC(C)(C)C(=O)N1CCc2ncc(C#Cc3ccccc3)cc2C1: Condition met
- CCCN1CCO[C@H]2c3cc(C#Cc4ccccc4)cnc3CC[C@@H]21 (racemic): Condition not met
- COC1CCCc2ncc(C#Cc3ccccc3)cc21 (single isomer, unassigned) [Example 2]: Condition met

====

assaySystem: UniProt:P41594
experimentNotes: Cytosolic calcium studies with stably transfected cells (h5CHO), functional assay of mGluR5 receptors
statedConditions: Table A1; positive modulators; h5CHO cells preincubated with modulator, stimulated by an EC20 concentration of L-glutamate; read-out: hEC50
Procedure: Chinese hamster ovary cells (CHO-K1 cells), stably transfected for inducible expression of a human metabotropic glutamate receptor mGluR5 to form a cell line called h5CHO, are seeded into black clear bottom 96 well plates at a density of 35.000 cells per well. […] Agonistic compounds to the receptor elicit increases in cytosolic calcium which can be measured as increases in fluorescence signals by use of a fluorescence imaging plate reader (Molecular Devices). […]
pEC50: −log10 of the molar value.
Catalogue of molecules with associated pEC50
measurementType: pEC50

- CCCN1CCO[C@@H]2c3cc(C#Cc4ccccc4)cnc3CC[C@@H]21 (racemic) [Example 15]: 7.05
- COC(=O)N1C2CCC1c1cc(C#Cc3cccc(F)c3)cnc1C2 (racemic) [Example 59]: 6.56
- O=S(=O)(N1CCOCC1)N1CCc2ncc(C#Cc3ccccc3)cc2C1 [Example 55]: 6.36
- CN1CC2(CCCc3ncc(C#Cc4ccccc4)cc32)OC1=O (racemic) [Example 11]: 7.27

====

assaySystem: human metabotropic glutamate receptor mGluR5 (Homo sapiens, UniProt P41594)
Construct: expressed in transfected cells; host or cells: CHO-K1 (h5CHO), IPTG-inducible
experimentNotes: Cytosolic calcium studies with stably transfected cells (h5CHO), functional assay of mGluR5 receptors
Format: cell-based
statedConditions: Table A1; positive modulators; h5CHO cells preincubated with modulator, stimulated by an EC20 concentration of L-glutamate; read-out: hEC50
pEC50: −log10 of the molar value.
measurementType: pEC50

* FC(F)(F)CCN1CCO[C@@H]2c3cc(C#Cc4ccccc4)cnc3CC[C@@H]21 (racemic) | 7.43
* COC1CCCc2ncc(C#Cc3ccccc3)cc21 (racemic) [Example 1] | 7.49
* CN1CCN(S(=O)(=O)N2CCc3ncc(C#Cc4ccccc4)cc3C2)CC1 | 5.69
* COC(=O)N1CCO[C@@H]2c3cc(C#Cc4ccccc4)cnc3CC[C@@H]21 (racemic) | 6.02

====

Catalogue of compounds with associated IC50
assaySystem: human metabotropic glutamate receptor mGluR5 (Homo sapiens, UniProt P41594)
experimentNotes: Cytosolic calcium studies with stably transfected cells (h5CHO), functional assay of mGluR5 receptors
statedConditions: Table A2; negative modulation; compounds added 5 minutes before L-quisqualic acid (~80% of the maximal signal); h5CHO cells; read-out: hIC50
measurementType: IC50 (nM)

- COC(=O)N1Cc2cc(C#Cc3cccc(F)c3)cnc2[C@H]2CCC[C@H]21 (racemic): 132
- COC1CC(C)(C)Oc2ncc(C#Cc3cccc(N)n3)cc21 (racemic): 203
- N#Cc1cccc(C#Cc2cnc3c(c2)CN(C(=O)N2CCCCC2)CC3)c1: 740
- COC1CC(C)(C)Cc2ncc(C#Cc3ccccc3)cc21 (racemic): 341
- CN(C)C(=O)N1CCc2ncc(C#Cc3cccc(C#N)c3)cc2C1: 50.8

====

assaySystem: mGluR5 receptors (Rattus norvegicus, UniProt P31424)
Construct: Primary astrocyte cultures are prepared from cortices of newborn rats; endogenous in cells; host or cells: primary cortical astrocytes from Sprague-Dawley rat pups (2-4 d old)
Sequence (P31424 21-1203): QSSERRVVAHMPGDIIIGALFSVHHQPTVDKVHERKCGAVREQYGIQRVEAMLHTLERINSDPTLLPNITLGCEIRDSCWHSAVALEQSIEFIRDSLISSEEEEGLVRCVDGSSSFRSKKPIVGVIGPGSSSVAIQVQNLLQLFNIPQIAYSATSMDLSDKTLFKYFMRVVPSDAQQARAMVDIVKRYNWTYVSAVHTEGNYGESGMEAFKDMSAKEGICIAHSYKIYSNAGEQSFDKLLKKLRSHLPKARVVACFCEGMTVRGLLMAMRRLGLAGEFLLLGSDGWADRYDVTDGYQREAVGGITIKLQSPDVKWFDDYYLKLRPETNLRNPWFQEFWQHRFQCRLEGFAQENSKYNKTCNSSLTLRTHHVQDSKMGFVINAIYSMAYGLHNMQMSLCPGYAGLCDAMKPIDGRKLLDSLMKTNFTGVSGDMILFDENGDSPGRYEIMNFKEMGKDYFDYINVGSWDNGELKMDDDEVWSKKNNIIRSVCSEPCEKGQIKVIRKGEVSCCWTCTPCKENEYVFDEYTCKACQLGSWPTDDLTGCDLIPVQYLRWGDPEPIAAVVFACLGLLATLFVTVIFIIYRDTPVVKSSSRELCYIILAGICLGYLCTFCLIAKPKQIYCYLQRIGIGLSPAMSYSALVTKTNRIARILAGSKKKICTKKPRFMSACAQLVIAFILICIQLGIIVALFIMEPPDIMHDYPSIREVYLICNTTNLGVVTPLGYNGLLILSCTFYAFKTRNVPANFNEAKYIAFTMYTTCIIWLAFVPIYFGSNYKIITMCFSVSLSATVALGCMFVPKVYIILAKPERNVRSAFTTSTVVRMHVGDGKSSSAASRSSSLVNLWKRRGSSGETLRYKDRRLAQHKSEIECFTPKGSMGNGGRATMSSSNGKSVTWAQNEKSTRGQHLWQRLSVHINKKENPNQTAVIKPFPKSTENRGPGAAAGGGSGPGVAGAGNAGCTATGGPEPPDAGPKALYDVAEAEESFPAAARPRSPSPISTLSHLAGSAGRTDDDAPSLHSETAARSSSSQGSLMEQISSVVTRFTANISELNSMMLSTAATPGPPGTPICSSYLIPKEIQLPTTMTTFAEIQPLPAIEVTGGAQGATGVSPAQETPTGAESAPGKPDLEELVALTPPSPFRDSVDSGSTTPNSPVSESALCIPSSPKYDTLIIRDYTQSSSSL
experimentNotes: Cytosolic calcium studies with astrocytes (FLIPR), functional assay of mGluR5 receptors
Format: cell-based
statedConditions: Table A1, left shift of quisqualate EC50 in the presence and absence of 10 µM modulator
Catalogue of molecules with associated r left shift
measurementType: r left shift

* CN(C)C(=O)N1CCO[C@@H]2c3cc(C#Cc4ccccc4)cnc3CC[C@@H]21 (racemic) | 3.3-fold
* O=S(=O)(N1CCCCCC1)N1CCc2ncc(C#Cc3ccccc3)cc2C1 | 3.3-fold
* CC(C)(C)C(=O)N1CCc2ncc(C#Cc3ccccc3)cc2C1 | 2.8-fold
* O=C1OC2(CCCc3ncc(C#Cc4ccccc4)cc32)CN1C1CC1 (racemic) | 1.5-fold

====

assaySystem: mGluR5 receptors (Rattus norvegicus, UniProt P31424)
Construct: Primary astrocyte cultures are prepared from cortices of newborn rats; endogenous in cells
experimentNotes: Cytosolic calcium studies with astrocytes (FLIPR), functional assay of mGluR5 receptors
statedConditions: Table A2, pre-incubated 10 minutes before L-quisqualate (100 nM), read-out: rIC50
pIC50: −log10 of the molar value.
measurementType: pIC50

* CN(C)C(=O)N1CCc2ncc(C#Cc3cccc(F)c3)cc2C1 | 7.25
* CN(C)C(=O)N1CCc2ncc(C#Cc3cccc(C#N)c3)cc2C1 | 7.68
* COC1CC(C)(C)Cc2ncc(C#Cc3cccc(N)n3)cc21 (racemic) | 7.34
* N#Cc1cccc(C#Cc2cnc3c(c2)CN(C(=O)N2CCCCC2)CC3)c1 | 5.63

====

assaySystem: mGluR5 receptors (Rattus norvegicus, UniProt P31424)
Construct: Primary astrocyte cultures are prepared from cortices of newborn rats; endogenous in cells; host or cells: primary cortical astrocytes from Sprague-Dawley rat pups (2-4 d old)
experimentNotes: Cytosolic calcium studies with astrocytes (FLIPR), functional assay of mGluR5 receptors
Type: cell-based
statedConditions: Table A1, left shift of quisqualate EC50 in the presence and absence of 10 µM modulator
Catalogue of compounds with associated r left shift
measurementType: r left shift

* COC(=O)N1CC2Cc3cc(C#Cc4ccccc4)cnc3C2C1 (racemic) | 4.1-fold
* O=C(N1CCc2ncc(C#Cc3ccccc3)cc2C1)N(CC(F)(F)F)CC(F)(F)F | 2.3-fold
* O=S(=O)(N1CCOCC1)N1CCc2ncc(C#Cc3ccccc3)cc2C1 | 3.8-fold
* COC(=O)N1CC2CCc3ncc(C#Cc4ccccc4)cc3C2C1 (centres unmarked) | 3.0-fold
* CN1CC2(CCCc3ncc(C#Cc4ccccc4)cc32)OC1=O (racemic) | 2.9-fold
* FC(F)(F)CN1CCO[C@@H]2c3cc(C#Cc4ccccc4)cnc3CC[C@@H]21 (racemic) | 4.2-fold
* O=S(=O)(N1CCCCC1)N1CCc2ncc(C#Cc3ccccc3)cc2C1 | 2.5-fold
* CCCN1CCO[C@@H]2c3cc(C#Cc4ccccc4F)cnc3CC[C@@H]21 (racemic) | 2.6-fold
* COC1CCCc2ncc(C#Cc3ccccc3)cc21 (racemic) [Example 1] | 4.9-fold
* CC(C)(C)[S+]([O-])N1CCc2ncc(C#Cc3ccccc3)cc2C1 (racemic) | 3.3-fold
* CCCN1CCO[C@@H]2c3cc(C#Cc4ccccc4)cnc3CC[C@@H]21 (racemic) [Example 15] | 5.2-fold
* CCN1CCO[C@@H]2c3cc(C#Cc4ccccc4)cnc3CC[C@@H]21 (racemic) | 3.6-fold
* COC(=O)N1C[C@H]2Cc3cc(C#Cc4cccc(F)c4)cnc3[C@H]2C1 (racemic) | 2.7-fold
* CCCN1CCO[C@@H]2c3cc(C#Cc4ccccc4)cnc3CC[C@@H]21 (single isomer, unassigned) [Example 17] | 3.5-fold
* CC(C)(C)OC(=O)N1CCc2ncc(C#Cc3ccccc3)cc2C1 | 1.9-fold
* COC(=O)N1CCO[C@@H]2c3cc(C#Cc4ccccc4)cnc3CC[C@@H]21 (racemic) | 4.4-fold
* CC(C)CN1CCO[C@@H]2c3cc(C#Cc4ccccc4)cnc3CC[C@@H]21 (racemic) | 11.7-fold

====

assaySystem: human metabotropic glutamate receptor mGluR5 (Homo sapiens, UniProt P41594)
experimentNotes: Cytosolic calcium studies with stably transfected cells (h5CHO), functional assay of mGluR5 receptors
statedConditions: Table A1; positive modulators; h5CHO cells preincubated with modulator, stimulated by an EC20 concentration of L-glutamate; read-out: hEC50
pEC50: −log10 of the molar value.
measurementType: pEC50

* CC(C)CN1CCO[C@@H]2c3cc(C#Cc4ccccc4)cnc3CC[C@@H]21 (racemic) | 8.40
* CC(C)COC(=O)N1CCc2ncc(C#Cc3ccccc3)cc2C1 | 6.84
* O=S(=O)(N1CCCCCC1)N1CCc2ncc(C#Cc3ccccc3)cc2C1 | 6.30
* O=C1OC2(CCCc3ncc(C#Cc4ccccc4)cc32)CN1c1ccccc1 (racemic) | 6.02
* CC1(C)c2cc(C#Cc3ccccc3)cnc2CCS1(=O)=O | 6.01
* CCCN1CCO[C@@H]2c3cc(C#Cc4ccccc4)cnc3CC[C@@H]21 (single isomer, unassigned) [Example 17] | 6.41
* COC(=O)N1CC2CCc3ncc(C#Cc4cccc(F)c4)cc3C2C1 (centres unmarked) | 6.48
* CCCN1CC2(CCCc3ncc(C#Cc4ccccc4)cc32)OC1=O (racemic) | 6.14
* FC(F)(F)CN1CCO[C@@H]2c3cc(C#Cc4ccccc4)cnc3CC[C@@H]21 (racemic) | 7.19
* CCCN1CCO[C@@H]2c3cc(C#Cc4ccccc4)cnc3CC[C@@H]21 (single isomer, unassigned) [Example 16] | 7.33
* COC(=O)N1CC2CCc3ncc(C#Cc4ccccc4)cc3C2C1 (centres unmarked) | 6.46
* O=C(Oc1ccccc1)N1CCc2ncc(C#Cc3ccccc3)cc2C1 | 6.42
* COC(=O)N1C2CCC1c1cc(C#Cc3ccccc3)cnc1C2 (racemic) | 6.70
* CC1(C(=O)N2CCc3ncc(C#Cc4ccccc4)cc3C2)COC1 | 6.04
* O=C(N1CCCCC1)N1CCc2ncc(C#Cc3ccccc3)cc2C1 | 6.07
* CCCN1CCO[C@@H]2c3cc(C#Cc4ccc(F)cc4)cnc3CC[C@@H]21 (racemic) | 6.40
* CN(C)C(=O)N1CCO[C@@H]2c3cc(C#Cc4ccccc4)cnc3CC[C@@H]21 (racemic) | 6.05

Values from patent EP2650284A1
